Assay: Drug repurposing screens with cells derived from glioblastoma tumor samples (AID 1345199); also: % is scaled to controls: 0 for no effect and ±100 for the full control effect
Conditions: GBM patient neurospheres viability, ATP luminescence, 48 h; at 45.9 µM (top of the series); tumour line B
Results filed as inconclusive are left out.
Field: activity, negative = cell killing. Provide a value for each of the compounds that follow.
Kindly answer with a numeric value in %, unit omitted.

Lookup result for O=P(O)(O)C(Sc1ccc(Cl)cc1)P(=O)(O)O ; measured activity, negative = cell killing: 3.66

Lookup result for O=C[C@H](O)[C@@H](O)[C@H](O[C@H]1O[C@H](CO)[C@@H](O[C@H]2O[C@H](CO)[C@@H](O)[C@H](O)[C@H]2O)[C@H](O)[C@H]1O)[C@H](O)CO ; measured activity, negative = cell killing: -5.93

Lookup result for COc1ccc(CCNCC(O)COc2cccc(C)c2)cc1OC (centres undefined) ; measured activity, negative = cell killing: -28.4

Lookup result for O=C(CO)[C@@H](O)[C@H](O)[C@H](O)CO ; measured activity, negative = cell killing: -6.93

Lookup result for CCCCCCCCCCCCCCCC(=O)OC[C@@H](COP(=O)([O-])OCC[N+](C)(C)C)OC(=O)CCCCCCCCCCCCCCC ; measured activity, negative = cell killing: -16.6

Lookup result for Cn1nnnc1SCC1=C(C(=O)O)N2C(=O)[C@@H](NC(=O)[C@H](OC=O)c3ccccc3)[C@H]2SC1 ; measured activity, negative = cell killing: -10.5

Lookup result for CCCCCCCCCCCCCCCC(=O)O[C@@H]1CC(C)=C(/C=C/C(C)=C/C=C/C(C)=C/C=C/C=C(C)/C=C/C=C(C)/C=C/C2=C(C)C[C@@H](OC(=O)CCCCCCCCCCCCCCC)CC2(C)C)C(C)(C)C1 ; measured activity, negative = cell killing: -12.7

Lookup result for NCCC[C@H](N)C(=O)O ; measured activity, negative = cell killing: -11.7

Lookup result for O=C(Nc1ccc(/C=C/c2ccc(NC(=O)c3cc(S(=O)(=O)O)c4cccnc4c3O)cc2S(=O)(=O)O)c(S(=O)(=O)O)c1)c1cc(S(=O)(=O)O)c2cccnc2c1O ; measured activity, negative = cell killing: -15.1

Lookup result for CCCCCCCCCC(=O)O ; measured activity, negative = cell killing: -8.75

Lookup result for C=C1CC2C3CCC4=CC(=O)C=C[C@]4(C)[C@@]3(F)[C@@H](O)C[C@]2(C)[C@@]1(O)C(=O)COC(C)=O (some centres undefined) ; measured activity, negative = cell killing: -0.0683

Lookup result for CN1CCN(C2=Nc3ccccc3Cc3ccccc32)CC1 ; measured activity, negative = cell killing: -12

Lookup result for C[C@H]1C[C@@H]2[C@H]([C@@H](O)C[C@@]3(C)[C@H]2CC[C@]3(O)C(=O)COC(=O)CCC(=O)O)[C@@]2(C)C=CC(=O)C=C12 ; measured activity, negative = cell killing: -16.2

Lookup result for CN1CC(O)c2cc(N=NC(N)=O)c(O)cc21 (centres undefined) ; measured activity, negative = cell killing: -10.8

Lookup result for CC(CN(C)C)CN1c2ccccc2S(=O)(=O)c2ccccc21 (centres undefined) ; measured activity, negative = cell killing: -1.87

Lookup result for CS(=O)(=O)OCCCNCCCOS(C)(=O)=O ; measured activity, negative = cell killing: 5.52

Lookup result for CC(=O)OC[C@H]1O[C@@H](O[C@H]2[C@H](O)[C@@H](OC(=O)c3ccccc3C(=O)O)[C@H](O)O[C@@H]2COC(C)=O)[C@H](O)[C@@H](OC(=O)c2ccccc2C(=O)O)[C@@H]1O ; measured activity, negative = cell killing: -10.5

Lookup result for CCC(=O)Oc1ccc2c(c1)CC[C@@H]1[C@@H]2CC[C@]2(C)[C@@H](OC(=O)CC)CC[C@@H]12 ; measured activity, negative = cell killing: -0.785

Lookup result for O=C(CCCN1CCC(n2c(=S)[nH]c3ccccc32)CC1)c1ccc(F)cc1 ; measured activity, negative = cell killing: -28.9

Lookup result for CCC[C@@]1(CCc2ccccc2)CC(O)=C([C@H](CC)c2cccc(NS(=O)(=O)c3ccc(C(F)(F)F)cn3)c2)C(=O)O1 ; measured activity, negative = cell killing: -17

Lookup result for CC#CCC(C)[C@H](O)/C=C/[C@@H]1[C@H]2C/C(=C/CCCC(=O)O)C[C@H]2C[C@H]1O (some centres undefined) ; measured activity, negative = cell killing: -8.92

Lookup result for CN(C(=O)CO)c1c(I)c(C(=O)NCC(O)CO)c(I)c(C(=O)NCC(O)CO)c1I (centres undefined) ; measured activity, negative = cell killing: -7.14

Lookup result for O=C(O)c1ccccc1[O-].O=C(O)c1ccccc1[O-].[Zn+2] ; measured activity, negative = cell killing: -5.99

Lookup result for CNC[C@@H]1CC[C@@H](N)[C@@H](O[C@H]2[C@H](O)[C@@H](O[C@H]3OC[C@](C)(O)[C@H](NC)[C@H]3O)[C@H](N)C[C@@H]2N)O1 ; measured activity, negative = cell killing: -14.4
